measurement target: hP2Y2 Receptor (Homo sapiens, UniProt P41231)
Construct: expressed in transfected cells; host or cells: human astrocytoma cells
Sequence (P41231 whole entry): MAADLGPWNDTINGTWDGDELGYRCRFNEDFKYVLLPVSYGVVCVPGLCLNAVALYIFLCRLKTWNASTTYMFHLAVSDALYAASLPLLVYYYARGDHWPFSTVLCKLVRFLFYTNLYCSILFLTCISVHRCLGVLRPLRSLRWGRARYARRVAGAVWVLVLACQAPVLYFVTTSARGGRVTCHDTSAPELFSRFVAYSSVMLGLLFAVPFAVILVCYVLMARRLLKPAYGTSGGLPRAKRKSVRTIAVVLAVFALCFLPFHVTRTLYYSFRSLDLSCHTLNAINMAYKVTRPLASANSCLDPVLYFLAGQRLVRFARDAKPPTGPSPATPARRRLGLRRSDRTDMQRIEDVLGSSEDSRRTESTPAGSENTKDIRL
assay comment: Inhibition of agonist-induced calcium mobilization, recombinant receptor in human astrocytoma cells
Type: cell-based
run conditions: mean ± SEM
Examples of compounds with documented IC50 follow.
Numeric only. Scale: µM

Nc1c(S(=O)(=O)O)cc(Nc2cccc(Cl)c2)c2c1C(=O)c1ccccc1C2=O [Entry 27]	24.5
Nc1c(S(=O)(=O)O)cc(Nc2cccc3ccccc23)c2c1C(=O)c1ccccc1C2=O [Entry 25]	6.67
Nc1c(S(=O)(=O)O)cc(Nc2ccc(Cl)cc2)c2c1C(=O)c1ccccc1C2=O [Entry 15]	4.46
Nc1c(S(=O)(=O)O)cc(Nc2ccccc2)c2c1C(=O)c1ccccc1C2=O [Entry 17]	5.61

Field: next compound
Query :: Quickly give me recorded IC50 for Nc1c(S(=O)(=O)O)cc(Nc2cccc([N+](=O)[O-])c2)c2c1C(=O)c1ccccc1C2=O [Entry 28]
Result :: 7.52

* * *

measurement target: hP2Y4 Receptor (Homo sapiens, UniProt P51582)
Sequence (P51582 whole entry): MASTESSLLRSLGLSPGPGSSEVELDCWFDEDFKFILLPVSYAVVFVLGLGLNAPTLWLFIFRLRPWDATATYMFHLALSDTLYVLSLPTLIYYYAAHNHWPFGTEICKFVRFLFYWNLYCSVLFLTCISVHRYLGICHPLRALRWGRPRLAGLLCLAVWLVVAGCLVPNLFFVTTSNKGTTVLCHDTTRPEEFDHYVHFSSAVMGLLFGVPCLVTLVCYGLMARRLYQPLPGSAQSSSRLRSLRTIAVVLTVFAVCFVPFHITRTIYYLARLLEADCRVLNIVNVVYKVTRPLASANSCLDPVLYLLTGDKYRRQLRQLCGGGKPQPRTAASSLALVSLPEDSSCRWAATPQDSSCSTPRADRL
assay comment: Inhibition of agonist-induced calcium mobilization, recombinant receptor in human astrocytoma cells
Assay type: cell-based
run conditions: mean ± SEM
measured quantity: IC50 (µM)
Note: unit µM is implicit; provide only the numeric part.

Examples with their reported IC50 follow.
Nc1c(S(=O)(=O)O)cc(Nc2cccc(S(=O)(=O)O)c2)c2c1C(=O)c1ccccc1C2=O	18.5
Nc1c(S(=O)(=O)O)cc(Nc2cccc3ccccc23)c2c1C(=O)c1ccccc1C2=O	10.1
Nc1ccc(Nc2cc(S(=O)(=O)O)c(N)c3c2C(=O)c2ccccc2C3=O)cc1S(=O)(=O)O	11

We next turn to a different molecule, shown below.
Query :: Give the reported IC50 for this molecule. "Nc1c(S(=O)(=O)[O-])cc(Nc2ccc(Nc3ncccn3)c(S(=O)(=O)[O-])c2)c2c1C(=O)c1ccccc1C2=O.[Na+].[Na+]"
Result :: 9.04

* * *

measurement target: hP2Y4 Receptor (Homo sapiens)
assay comment: Inhibition of agonist-induced calcium mobilization, recombinant receptor in human astrocytoma cells
Type: cell-based
run conditions: mean ± SEM
In this section, each of the compounds is paired with its reported IC50.

COc1ccc(CCNc2cc(S(=O)(=O)O)c(N)c3c2C(=O)c2ccccc2C3=O)cc1OC	> 30 µM
Nc1c(S(=O)(=O)O)cc(Nc2ccc(Nc3ccccc3)cc2)c2c1C(=O)c1ccccc1C2=O	> 3 µM
Nc1c(S(=O)(=O)O)cc(Nc2ccc(Cl)cc2)c2c1C(=O)c1ccccc1C2=O	> 3 µM

Query :: Please report IC50 with hP2Y4 Receptor (Homo sapiens) for item "Nc1c(S(=O)(=O)O)cc(Nc2cccc(Cl)c2)c2c1C(=O)c1ccccc1C2=O" .
Result :: > 3 µM
